- Tested target: Kappa-type opioid receptor (Homo sapiens)
- Sequence (P41145 whole entry): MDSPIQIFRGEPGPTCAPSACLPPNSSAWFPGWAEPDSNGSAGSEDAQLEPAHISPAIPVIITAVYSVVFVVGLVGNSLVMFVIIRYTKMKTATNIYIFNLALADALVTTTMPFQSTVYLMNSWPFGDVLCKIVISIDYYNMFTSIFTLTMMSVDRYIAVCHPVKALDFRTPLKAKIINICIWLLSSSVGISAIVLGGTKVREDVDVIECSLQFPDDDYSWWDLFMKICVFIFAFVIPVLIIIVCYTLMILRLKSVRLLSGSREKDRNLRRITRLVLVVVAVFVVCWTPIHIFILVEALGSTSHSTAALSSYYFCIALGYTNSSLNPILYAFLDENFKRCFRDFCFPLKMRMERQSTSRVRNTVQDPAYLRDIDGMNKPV
Hi there, I'd appreciate the recorded pKi for every entry that follows.
Answers are plain numbers, as −log10 of the molar value.

Use the examples below as a reference point.
Input smiles | Property label | Recorded number
CCC(=O)NCCc1ccc2[nH]c3c(c2c1)C[C@@]1(O)C2Cc4ccc(O)c5c4[C@@]1(CCN2CC1CC1)[C@H]3O5 | pKi | 8.80
CCCCC(=N)NCCc1ccc2[nH]c3c(c2c1)C[C@@]1(O)C2Cc4ccc(O)c5c4[C@@]1(CCN2CC1CC1)[C@H]3O5 | pKi | 9.52
CC(C)CC(=N)NCCc1ccc2[nH]c3c(c2c1)C[C@@]1(O)C2Cc4ccc(O)c5c4[C@@]1(CCN2CC1CC1)[C@H]3O5 | pKi | 8.86
O=C(NCCc1ccccc1)c1ccc2[nH]c3c(c2c1)C[C@@]1(O)C2Cc4ccc(O)c5c4[C@@]1(CCN2CC1CC1)[C@H]3O5 | pKi | 8.66
CCCC(=O)NCCc1ccc2[nH]c3c(c2c1)C[C@@]1(O)C2Cc4ccc(O)c5c4[C@@]1(CCN2CC1CC1)[C@H]3O5 | pKi | 9.07

// moving on: another record for pKi
Entry `COc1ccc(CNC(=O)c2ccc3[nH]c4c(c3c2)C[C@@]2(O)C3Cc5ccc(O)c6c5[C@@]2(CCN3CC2CC2)[C@H]4O6)cc1` under Kappa-type opioid receptor (Homo sapiens) had pKi of 8.68
